- Test Name: PET hydrolysis, aromatic products released after 48 h (umol product/mg enzyme); higher = more PET depolymerization activity
- Protocol Conditions: substrate: aFilm; 40 °C; pH 6.5
Property: PET hydrolysis

Record request: PET hydrolysis value, item ASPYQRGPNPTAASIAATTGPFAIASITVPRGNGFGGGVIYYPTSTSQGTFGGIAISPGLNGTWSGISWLGPRLASQGFVVFGIETNNLNDSPTSRGTQLLAALDYLTQRSSVRSRLDANRLAVMGHSMGGGGALDAALRRPTLKATIGNAPHLPSGSLANDRVPTLIYAMQNDTLVTPARLTSLYNTIPAATERAYIEVTGAGHNYIGQPSTTLARTMIPWLKIFIDSDTRYAPFLCPLNDRSGIRQYRNSCPLI [ESM128] < 3

Repeat with APPARVAALATTAYQRGPAPTLSGVRAALGPFSYSTASVSAAATGYTFGGGTVYYPDDTSQGTFGGIAVTPGYTGTEGSIAWLGPRLASQGFVVITIATKSLYDQPTARGQQLLAALDYLKTYSPAAVRQRLDPQRLAVSGHSMGGGGALYAVWSRPSLKAAVPLAPYHTIKNWSAITVPTLIEAGTADTVTPVGTFAEPIYQSLTGASERAYAEVAGANHLTFTAENPLIGGLEVAWMKRFVDDDARYDQFLCPAPTDPGLTEYRDSCPTS [TEP101] < 3

Now the same for LTPSPTPPPTGGTGGCPADAICRGETPGSYSANGPYGSRSYTLSRIQTPGGATVYYPANAEPPFSGLVFTPPYTGSQFMYRAWGPFFASHGIVMVTMDTRTTLDSVDQRAAQQKQVLDALKAENTRSASPLRGKLDTSRLGAVGWSMGGGATWINSAEYSGLKTAMSLAGHNLSALDINARGSNTRVPTLIMNGALDATYLGGLGQSLGVYNNIPRGIPKVIYEVSSAGHFSWGSPTSAGRSVAQIALAFQKTFLDGDTRWATYIRRPSSGVATWRTANLP [ESM175] < 3

// repeat for MAAANPYQRGPDPTLASVAATNGPFATAQMTVPPGNGFNGGYIYYPTDTSLGTWGAVAIVPGYTALFKNEEAWMGPRLASFGFVVIGIETNSRTDFDTARGTQLLAALDYLTQKSAVRNRVDPGRLGVIGHSMGGGGALVAATQRPSLKAAVGLAPFKPSGNLANDRVPTMFIAGNRDTVVTPSYLDGLYGSLPAATKKAYVQINGADHLFATKPNTVEMRTLIPWLKIFLDNDTRYSQFLCPTLLDKTGVSMYRGTCPLI [TEP109] and report 10.5

Next record, please: ADNPYQRGPNPTQASIAANRGTFATAETSVGGGNGFGGAKIYYPTDTSQGTFGAIAVSPGYTATWAAEGAWMGHWLASFGFVVIGIDTINRNDREYARGTQLLAALDYLTQRSSVRTRVDPNRLAVMGHSMGGGGTISAALRRPTLKAAIGLAPYYPSQSTSGMQVPTMLLAGQNDGTSTPASIVTFYNDIPASTEKVYLELTGAGHGFPTSNNSVVTRKVIPWMKIFIDQDTRYTQFLCPLQDLTGIRTYRNSCPLLPNDPGTTFSLAGSASGKCADVPGRVQTNGTGLIIWTCNNAGNQQWTQTPAGELRIYGNTKCMDANASGQGARVTINTCNGGNSQKWTVNTNGTVTNAASGRCLDAGGTADNSPVVVNTCNAASGQTWTKRP [DP047] < 3

Record: ADNPYQRGPDPTPALVASVNGPFATASVSVPAGYGFGGGMIYYPTDTSQGTFGGIAISPGYTALFSAELAWMGPWLASHGFVVIGIETNNRNDFDEARGTQLLAALDYLTQQSPVRNRVDPNRLAVAGHSMGGGGALNAAIRRPSLKAAVGLAPFSPSSNLANDRVPTMVFSGQQDTVVTPSYVTGLYNSLPSTTQSAYLEIAGGDHGFPVGRPNQVMIRTMLPFVKIFVDYDTRYSPFLCPLSDTSGVVTYRSTCPLTPPGLPTTPPTTPPTTVPTSPPTGGPTTPPTTPSQPGGACTATYRTVNSWPGGFQGEVTVTAGNSAINGWTVRWTLDSGQAITQVWNGEVSTSGSTVSVRNAPYNGSLPPSGSTTFGFLSSGSPSSPSLTCTSP [DP059] < 3

Okay, and AGFERGPDPSTSTLDAARGPFAVAEERVYSWRASGFGGGDIYYPTTTSEGTFGVVAVAPGYTAGRSSMAWLASRIASHGFVVINIDTLTRSDQPASRGRQLLAALDHVTSSSGVRDRVDASRQAVVGHSMGGGGALEAASSRPALQAAVPLTPWNLTKRWSSLQVPTFIVGAENDSVASVRTHAEPFYESLPAALPKAYLELNNASHFAPNTTNSTIGRYTVAWLKRYVDDDLRYSQFLCPPPPPSSAIEEFRATC [DP087] ? < 3

Further, for QSAEASPPHGPDPTEESITAPRGPFEIDQKTVSRASVRGFGGGTIYYPTDTSEGTFSAVAIAPGYTAGQESLAWLGPRLASQGFVVFTIDTLTRYDQPDSRSRQLLAALDHLTDDSDVADRVDPARRGVMGHSMGGGGSLQAALDDPDLKAAIPMTPWHTTKDFSGVRTPTLIIGAQNDTVAPVSQHAKPFYESLPDDPGKAYLELAGASHFAPNVDNTTIARYSIAWLKRFLDDDTRYEQFLCPPPPDPAISDHQSTCPY [TEP105] ? 5

Next up: GQAPTTAAQVRASAFAKGPDPTEQTIKAQRGPFQIKQLSVAAQSGRGFNRGTIYYPTDTGQGTYGAIAVIPGFLEPEFITSWYGPTLASYGFVVMTLEPFAITDFPDPRSNQLLAAVDWLAADSPVKAQVDPNRLAVMGHSMGGGGALLAASKRPSLKAAVPLAPWNLYADFAGVTVPTLVIGADNDFIAPVGMHADPMYASIKASPNEGYLKLKNADHFTVNSYSATLTKFTVSWMKRYVDEDTRYTQFLCPAPQPDPSFASFQMTCPS [TEP173] < 3

Input ADNPYQRGPDPTPASIAADHGPFATAQTTIPKGNGLGGGIVYYPTDTSQGTFGAIAIAPGYGTEWRWYGWLGPRLASFGFVVVGIETNSLSDYADARADQLLAALDWLVTSSPVRDRVDRTRLAVGGHSMGGGGALVAATRRPSLRSAVGMAPYVPDGILRGTSVPTILFGGQADTTVTPAYLASAYATIPATVPRAYPEIAGEGHGFAAGGGGGNSGAFARVMMVWLKVFVDADTRYPPFLCPTLSNTSGISKYQASCPLGPGGTIPPPDTSRLANANAGRCLDASGAGTANGTKVILWTCNHGANQQWNRT [ESM139] < 3

====

- Test Name: melting temperature (DSF); higher = more thermostable
Decision: melting temperature compared against 60 C; not below it gives class 1, below it gives class 0.

Has CVTPAPPPAPDVATVTVGAGNGFGGGTIYYPQGATGRLPVVAASPGFTENQNAVGWYGPLLAREGNIVITIDTNSPFDSPTSRADQLLAAIDYVVNRSSVASIADGSRTAVMGHSMGGGGSLEAALKRPGLKAIIPLAPWNTTTNFSGVRVPTLIVGCQNDAIAPVGSHAEPFYQSIPATTPKAYLEIAGGDHFCTNSENPTIANYVVAWTDRFLQGDTSASSRLCPPPPAGGSISEYRANCPY [ESM050] a recorded melting temperature greater than or equal to 60 C? class 1

Another sequence to look at: ADNPYQRGPDPTPQSISATTGPFATASVTVPRQGNFGGGVIYYPTDTSQGTFGAVAISPGLNGTWPGIAWLGPRLSSQGFVVFGIDTLGLNDSTASRGSQLLAALDYLTQTSSVRTRVDASRLAVAGHSMGGGGAFEAVLRRPTLKASIPNAPFFPGSAANVRVPTLITAMQNDSLVGQNRNAYNGIPAGVEKAYIELAGAGHNQIGQPTTAIARNWIPWLKIFVDNDARYHQFFCPTTNMSGLSQYLNTCPLTSATPPTSSPSAGPTTPGPTGPPPGGACAATYQTVNTWSGGYQGEMTVRAGNSAINGWTVRWTMGGGQISQVWNGTLVTGSGAAAVRNAPYNGALAAGATTTFGFISSGTPSATSLTCATP [ESM064] class 1

Next: TDNPHQRGPNPSQASISANRGTFATAETSVGSGNGFGAAKIYYPTDTGQGTFGAIAVSPGYTATWAAEGAWMGHWLASFGFVVIGIDTINRNDFDVARGTQLLAALDYLTQRSSVRTRVDPSRLAVMGHSMGGGGTISAALRRPTLKAAIGLAPYSPSQTTTGMQVPTVLLAGQNDGTSTPASIITLHNNIPASTEKAYLELTGAGHGFPTSNNSVVTRKVIPWMKIFIDQDTRYTQFLCPLQDWTGIRSYRNSCPLLPNDPGTTFSLAGSASGKCVDVPGRVQTNGTGLIIWTCNGAANQHWTRTAAGELRIYGNSKCMDASGQGARVTINSCNGGSGQKWTVGTNGTVTNAASAGCLDTGGTADNAPVIVTTCNGGSGQIWIKRS [ESM184] class 0
